Biological target: human NaV 1.6 (Homo sapiens, UniProt Q9UQD0)
Construct: expressed in transfected cells; host or cells: CHO
Sequence (Q9UQD0 whole entry): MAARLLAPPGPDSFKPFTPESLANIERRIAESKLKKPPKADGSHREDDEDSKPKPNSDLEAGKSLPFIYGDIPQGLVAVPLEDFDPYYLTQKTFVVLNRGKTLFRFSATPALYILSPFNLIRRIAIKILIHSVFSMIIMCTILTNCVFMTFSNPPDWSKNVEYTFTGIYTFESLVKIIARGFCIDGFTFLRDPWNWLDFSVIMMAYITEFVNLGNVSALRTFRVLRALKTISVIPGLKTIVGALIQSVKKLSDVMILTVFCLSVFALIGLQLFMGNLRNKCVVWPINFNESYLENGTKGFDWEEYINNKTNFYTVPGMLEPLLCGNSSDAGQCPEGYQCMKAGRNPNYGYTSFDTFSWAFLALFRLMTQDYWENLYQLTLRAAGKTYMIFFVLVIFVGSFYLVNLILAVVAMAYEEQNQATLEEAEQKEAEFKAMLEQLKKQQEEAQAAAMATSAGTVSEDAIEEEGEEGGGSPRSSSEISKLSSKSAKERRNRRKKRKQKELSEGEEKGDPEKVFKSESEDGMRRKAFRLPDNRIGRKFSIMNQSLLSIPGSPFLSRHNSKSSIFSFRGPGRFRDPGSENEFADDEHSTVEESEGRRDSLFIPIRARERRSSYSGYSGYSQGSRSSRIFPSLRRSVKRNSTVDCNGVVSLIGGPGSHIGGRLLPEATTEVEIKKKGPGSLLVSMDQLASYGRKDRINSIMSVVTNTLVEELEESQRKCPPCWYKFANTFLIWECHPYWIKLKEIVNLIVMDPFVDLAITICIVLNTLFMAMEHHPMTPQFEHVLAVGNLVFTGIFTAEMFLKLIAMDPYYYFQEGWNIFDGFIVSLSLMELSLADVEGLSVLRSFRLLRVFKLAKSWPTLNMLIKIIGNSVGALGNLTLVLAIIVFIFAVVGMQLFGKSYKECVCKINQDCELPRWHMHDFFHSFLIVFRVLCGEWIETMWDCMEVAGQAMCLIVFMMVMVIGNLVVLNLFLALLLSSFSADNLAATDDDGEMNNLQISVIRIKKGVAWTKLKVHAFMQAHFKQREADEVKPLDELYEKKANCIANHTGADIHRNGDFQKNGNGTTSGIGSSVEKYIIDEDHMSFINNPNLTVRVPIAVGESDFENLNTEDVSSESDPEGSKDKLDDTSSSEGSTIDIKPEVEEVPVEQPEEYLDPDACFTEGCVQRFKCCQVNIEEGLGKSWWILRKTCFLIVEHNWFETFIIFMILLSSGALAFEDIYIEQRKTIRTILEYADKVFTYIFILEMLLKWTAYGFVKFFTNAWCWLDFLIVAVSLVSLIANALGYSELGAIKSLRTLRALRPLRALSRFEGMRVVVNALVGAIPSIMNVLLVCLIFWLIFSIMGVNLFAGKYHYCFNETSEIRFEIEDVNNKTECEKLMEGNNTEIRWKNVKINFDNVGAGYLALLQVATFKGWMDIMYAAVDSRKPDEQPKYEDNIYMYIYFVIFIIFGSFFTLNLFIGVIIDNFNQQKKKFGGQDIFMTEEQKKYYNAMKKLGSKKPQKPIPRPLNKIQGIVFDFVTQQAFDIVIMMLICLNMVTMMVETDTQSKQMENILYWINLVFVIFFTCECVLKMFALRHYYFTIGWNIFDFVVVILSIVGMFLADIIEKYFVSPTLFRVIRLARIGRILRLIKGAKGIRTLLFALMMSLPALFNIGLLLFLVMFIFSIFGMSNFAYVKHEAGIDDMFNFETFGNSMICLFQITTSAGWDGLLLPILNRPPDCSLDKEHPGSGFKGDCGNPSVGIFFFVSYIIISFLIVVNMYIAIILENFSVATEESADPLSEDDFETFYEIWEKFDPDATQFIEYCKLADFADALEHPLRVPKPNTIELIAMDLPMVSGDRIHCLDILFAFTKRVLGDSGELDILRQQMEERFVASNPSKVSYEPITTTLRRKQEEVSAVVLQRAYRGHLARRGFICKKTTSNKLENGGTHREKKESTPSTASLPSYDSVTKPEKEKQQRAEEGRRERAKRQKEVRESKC
Test: Electrophysiology, IonWorks Barracuda, NaV channel block in CHO cells
Format: cell-based
Conditions: IC50 TP1 (tonic), Nav1.6, CHO cells, 5 min exposure, ambient temperature
Description: Effects on Human NaV 1.1, NaV 1.2, NaV1.3, NaV 1.4, NaV 1.5, NaV 1.6, NaV 1.7 and NaV 1.8/β3 Sodium Channels Expressed in Mammalian Cells CHO cells were stably transfected with human ion channel cDNAs. Stable transfectants were selected by expression with the antibiotic-resistance gene(s) incorporated into the expression plasmid(s). Selection pressure was maintained by including selection antibiotics in the culture medium. […] Inhibition of NaV channels was measured using a stimulus voltage pattern. […]
Structures can show the parent of a compound that is named as a salt.
Below, each entry is listed alongside its reported IC50.
measurement name: IC50

COC(=O)[C@@H](c1ccc(-c2ccccc2)cc1)[C@H]1C=CCCN1 [EXAMPLE 1D, hydrochloride]: > 30 µM
COC(=O)[C@H](c1ccc(-c2ccccc2)cc1)[C@@H]1C=CCCN1.Cl [EXAMPLE 1C, hydrochloride]: > 30 µM
COC(=O)[C@H](c1ccc(-c2ccccc2)cc1)[C@@H]1C=CCCN1 (racemic) [EXAMPLE 1E]: > 30 µM

====

Target: human NaV1.3 (Homo sapiens, UniProt Q9NY46)
Construct: expressed in transfected cells; host or cells: CHO
Sequence (Q9NY46 whole entry): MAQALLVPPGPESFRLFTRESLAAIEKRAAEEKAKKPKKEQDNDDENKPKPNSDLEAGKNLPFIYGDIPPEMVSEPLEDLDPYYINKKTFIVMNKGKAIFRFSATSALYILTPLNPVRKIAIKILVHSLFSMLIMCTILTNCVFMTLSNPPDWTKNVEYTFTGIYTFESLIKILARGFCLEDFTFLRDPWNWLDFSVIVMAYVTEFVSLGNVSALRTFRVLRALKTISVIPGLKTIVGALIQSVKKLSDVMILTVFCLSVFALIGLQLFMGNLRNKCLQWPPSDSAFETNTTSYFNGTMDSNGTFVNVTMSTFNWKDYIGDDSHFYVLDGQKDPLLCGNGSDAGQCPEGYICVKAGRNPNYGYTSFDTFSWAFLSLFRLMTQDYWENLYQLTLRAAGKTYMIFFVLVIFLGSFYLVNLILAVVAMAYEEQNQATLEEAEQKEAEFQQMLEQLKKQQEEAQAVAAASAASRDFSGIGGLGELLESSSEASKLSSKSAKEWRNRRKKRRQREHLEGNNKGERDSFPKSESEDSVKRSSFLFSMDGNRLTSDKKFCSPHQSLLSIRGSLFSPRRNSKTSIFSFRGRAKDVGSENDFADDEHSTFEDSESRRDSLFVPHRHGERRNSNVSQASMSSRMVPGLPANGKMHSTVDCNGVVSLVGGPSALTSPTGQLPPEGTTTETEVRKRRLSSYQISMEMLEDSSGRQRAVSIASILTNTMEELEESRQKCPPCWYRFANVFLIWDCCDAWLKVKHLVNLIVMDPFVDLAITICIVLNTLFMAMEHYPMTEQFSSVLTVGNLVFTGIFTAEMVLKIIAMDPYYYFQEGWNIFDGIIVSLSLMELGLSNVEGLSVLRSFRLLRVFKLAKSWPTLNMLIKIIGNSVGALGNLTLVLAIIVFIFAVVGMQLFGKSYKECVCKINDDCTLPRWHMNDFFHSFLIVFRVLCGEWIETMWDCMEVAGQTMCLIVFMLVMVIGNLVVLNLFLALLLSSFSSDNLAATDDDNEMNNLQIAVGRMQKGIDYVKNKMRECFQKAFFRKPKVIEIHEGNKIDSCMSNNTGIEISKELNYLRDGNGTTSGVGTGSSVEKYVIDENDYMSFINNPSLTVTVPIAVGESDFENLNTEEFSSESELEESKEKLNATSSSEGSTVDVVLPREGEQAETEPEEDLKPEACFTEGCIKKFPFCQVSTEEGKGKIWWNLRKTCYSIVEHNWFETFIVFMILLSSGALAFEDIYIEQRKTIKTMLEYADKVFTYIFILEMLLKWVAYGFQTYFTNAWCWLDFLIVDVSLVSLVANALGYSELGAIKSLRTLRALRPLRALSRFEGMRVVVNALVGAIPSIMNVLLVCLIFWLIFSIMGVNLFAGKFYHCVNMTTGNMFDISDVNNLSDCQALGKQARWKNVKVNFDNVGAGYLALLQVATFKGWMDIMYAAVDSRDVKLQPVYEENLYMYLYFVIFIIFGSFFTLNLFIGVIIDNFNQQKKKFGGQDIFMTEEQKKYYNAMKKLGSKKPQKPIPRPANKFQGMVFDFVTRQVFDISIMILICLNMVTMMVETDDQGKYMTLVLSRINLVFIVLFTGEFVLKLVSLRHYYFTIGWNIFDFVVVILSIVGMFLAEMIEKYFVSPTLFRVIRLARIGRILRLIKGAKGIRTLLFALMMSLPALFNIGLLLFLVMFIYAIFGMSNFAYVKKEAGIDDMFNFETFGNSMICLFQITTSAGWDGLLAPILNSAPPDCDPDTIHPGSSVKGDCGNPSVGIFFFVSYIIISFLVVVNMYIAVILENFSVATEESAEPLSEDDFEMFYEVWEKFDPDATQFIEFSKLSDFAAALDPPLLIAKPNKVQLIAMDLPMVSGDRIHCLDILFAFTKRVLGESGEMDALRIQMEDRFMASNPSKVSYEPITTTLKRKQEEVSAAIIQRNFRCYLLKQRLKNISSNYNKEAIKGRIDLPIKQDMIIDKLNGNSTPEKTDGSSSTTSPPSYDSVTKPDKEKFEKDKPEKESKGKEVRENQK
Assay: Electrophysiology, IonWorks Barracuda, NaV channel block in CHO cells
Assay type: cell-based
Conditions: Nav1.3, CHO cells, 5 min exposure, ambient temperature; read-out: IC50 TP1 (tonic)
measurement name: IC50 (µM)

CCN(CC)CC(=O)Nc1c(C)cccc1C [Lidocaine, reference compound]: 555

====

Measured IC50 of individual entries
Target: human NaV 1.8/β3 (Homo sapiens, UniProt Q9Y5Y9)
Construct: expressed in transfected cells; host or cells: CHO
Experiment: Electrophysiology, IonWorks Barracuda, NaV channel block in CHO cells
Type: cell-based
Settings: IC50 TP1 (tonic), Nav1.8, CHO cells, 5 min exposure, ambient temperature
Where a name gives a salt, the structure may show the parent alone.
measurement name: IC50

COC(=O)[C@@H](c1ccc(-c2ccccc2)cc1)[C@H]1C=CCCN1 [EXAMPLE 1D, hydrochloride]: > 30 µM
COC(=O)[C@H](c1ccc(-c2ccccc2)cc1)[C@@H]1C=CCCN1 (racemic) [EXAMPLE 1E]: > 30 µM
COC(=O)[C@H](c1ccc(-c2ccccc2)cc1)[C@@H]1C=CCCN1.Cl [EXAMPLE 1C, hydrochloride]: > 30 µM

====

Target: human NaV 1.6 (Homo sapiens)
Construct: expressed in transfected cells; host or cells: CHO
Test: Electrophysiology, IonWorks Barracuda, NaV channel block in CHO cells
Type: cell-based
Conditions: Nav1.6, CHO cells, 5 min exposure, ambient temperature; read-out: IC50 TP1 (tonic)
measurement name: IC50

CCN(CC)CC(=O)Nc1c(C)cccc1C [Lidocaine, reference compound]: 423 µM

====

Target: human NaV 1.6 (Homo sapiens, UniProt Q9UQD0)
Construct: expressed in transfected cells; host or cells: CHO
Experiment: Electrophysiology, IonWorks Barracuda, NaV channel block in CHO cells
Type: cell-based
Conditions: IC50 TP2 (inactivated state), Nav1.6, CHO cells, 5 min exposure, ambient temperature
Structures can show the parent of a compound that is named as a salt.
Each entry below lists one item and its recorded IC50 value.
measurement name: IC50 (nM)

COC(=O)[C@H](c1ccc(-c2ccccc2)cc1)[C@@H]1C=CCCN1 (racemic): 1200
COC(=O)[C@H](c1ccc(-c2ccccc2)cc1)[C@@H]1C=CCCN1.Cl [EXAMPLE 1C, hydrochloride]: 2200
COC(=O)[C@@H](c1ccc(-c2ccccc2)cc1)[C@H]1C=CCCN1 [EXAMPLE 1D, hydrochloride]: 2000
